// provenance: ChEMBL document CHEMBL5058564

Tested on: U2OS
PROCEDURE TEXT: Incucyte cell viability with U2OS; also: unitless GR value; below 1 slowed growth and below 0 cell loss
Type: toxicity, cell-based
TEST SETTINGS: human, 18 h, 10 µM, compound concentration 10 uM, replicate number 2, timepoint 18 hours
Classify as follows. Reported Growth Rate greater than or equal to 0.8: Yes. Reported Growth Rate below: No.

INSERT INTO results (compound, assigned_category) VALUES
  ('COc1ccc2[nH]c(I)c(CCNC(C)=O)c2c1 [IODOMELATONIN]', 'Yes'),
  ('CC(C)c1noc(N2CCC(COc3ccc(-c4ccc(S(C)(=O)=O)cc4)nc3)CC2)n1 [GSK-1292263]', 'Yes'),
  ('COC[C@@H](CC(C)C)NC1=N/C(=C\c2ccc3ncsc3c2)C(=O)N1C', 'No'),
  ('CN(C)C(=O)Cn1cc(-c2ccc(-c3cncc4ccccc34)cc2)cn1', 'No'),
  ('O=C1NC(Nc2ccccc2)=N/C1=C\c1ccc2c(c1)OCO2', 'No');

Okay, now this compound:
Reported Growth Rate at or above 0.8? CC(C)COc1ccc(CNC(=O)N(Cc2ccc(F)cc2)C2CCN(C)CC2)cc1 [PIMAVANSERIN]
No
